- target of assay: UniProt Q9GZT9
- Sequence (Q9GZT9 whole entry, species assumed): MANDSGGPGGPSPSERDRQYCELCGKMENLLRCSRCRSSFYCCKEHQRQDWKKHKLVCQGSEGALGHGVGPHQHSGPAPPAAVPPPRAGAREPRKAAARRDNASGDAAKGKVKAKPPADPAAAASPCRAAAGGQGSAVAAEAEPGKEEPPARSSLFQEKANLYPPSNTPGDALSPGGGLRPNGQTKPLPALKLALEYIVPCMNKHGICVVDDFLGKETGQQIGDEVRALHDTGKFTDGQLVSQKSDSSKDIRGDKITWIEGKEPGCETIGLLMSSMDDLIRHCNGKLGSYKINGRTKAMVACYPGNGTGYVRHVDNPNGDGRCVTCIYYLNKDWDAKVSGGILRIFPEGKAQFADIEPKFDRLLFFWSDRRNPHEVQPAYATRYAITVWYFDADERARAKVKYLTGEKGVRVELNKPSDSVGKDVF
- test protocol: PHD2 inhibition, fluorescence polarization (FP) detection of HIF-1α / VBC complex interaction
- recorded conditions: PHD2 0.5 μg/μl, FAM-HIF (556-575) 1 μM, 30 minutes room temperature
quantity name: IC50 (µM)

O=C(O)CNC(=O)c1ncc2nc(-c3ccc4ccccc4c3)ccc2c1O [Compound 19] ... 7.5
COc1ccc(-c2ccc3c(O)c(C(=O)NCC(=O)O)nc(C)c3n2)cc1 [Compound 10] ... 63
Cc1nc(C(=O)NCC(=O)O)c(O)c2ccc(-c3cccnc3)nc12 [Compound 5] ... 1.7
O=C(O)CNC(=O)c1ncc2nc(-c3ccccc3)ccc2c1O [Compound 1] ... 18
Cc1nc(C(=O)NCC(=O)O)c(O)c2ccc(-c3ccc(C#N)cc3)nc12 [Compound 22] ... 9.3
Cc1nc(C(=O)NCC(=O)O)c(O)c2ccc(-c3ccc(C(C)(C)C)cc3)nc12 [Compound 11] ... 39

[1] O=C(O)CNC(=O)c1ncc2nc(-c3cccc(F)c3)ccc2c1O [Compound 20]
[2] COc1cccc(-c2ccc3c(O)c(C(=O)NCC(=O)O)ncc3n2)c1 [Compound 15]
[3] O=C(O)CNC(=O)c1ncc2nc(-c3ccc(Cl)cc3)ccc2c1O [Compound 8]
Q. // ranking: key=IC50, reverse=True Give the labels in the order specified.
A. 3, 2, 1

[1] Cc1nc(C(=O)NCC(=O)O)c(O)c2ccc(-c3cccc([N+](=O)[O-])c3)nc12 [Compound 21]
[2] O=C(O)CNC(=O)c1ncc2nc(-c3ccc(Br)cc3)ccc2c1O [Compound 17]
Q. I need your help: which of the pair 1 , 2 has higher IC50? Lab log: write the label of the selected item as the result.
A. 2

[P] Cc1nc(C(=O)NCC(=O)O)c(O)c2ccc(-c3ccc(Cl)cc3)nc12 [Compound 3]
[Q] CC(C)(C)c1ccc(-c2ccc3c(O)c(C(=O)NCC(=O)O)ncc3n2)cc1 [Compound 16]
Q. Of P and Q , whose reported IC50 is the larger number? Let me know the label of the one you choose.
A. P
(P: 85 µM, Q: 48 µM)

Taken from patent US9994566B2.
